The origin of these recorded values is a melting point compilation (Tetko et al.; mined from patent text by program, amines drawn as free bases though some values may be those of a salt).

quantity-name: melting point

>>> assay_result("CC1(C)CC(=C(c2ccc(O)cc2)c2ccc(OCCO)cc2)CC(C)(C)C1")
"154 to 155 °C"
>>> assay_result("OCC1CCc2cc3ccccc3n2CC1 (stereo not drawn)")
"90 to 91 °C"
>>> assay_result("Cc1ccccc1C(=O)Cc1ccncc1")
"118 to 119 °C"
>>> assay_result("COc1ccc(C(C)(O)C(F)(F)F)c(CCO)c1 (stereo not drawn)")
"110 to 111 °C"
>>> assay_result("O=S(=O)(/C=C/c1ccsc1)CS(=O)(=O)/C=C/c1ccsc1")
"150 to 152 °C"
>>> assay_result("Cc1cccc(COc2cccc(OCc3coc(-c4cccc(F)c4)n3)c2)c1C(=O)O")
"152 to 154 °C"
>>> assay_result("O=S(=O)(Cl)c1cc(S(=O)(=O)Cl)c(Cl)cc1Cl")
"104 °C"
>>> assay_result("CCc1nc2c(c(C)c(C)n3nnnc23)n1CCOCCNS(C)(=O)=O")
"216 to 218 °C"
>>> assay_result("COc1c(-c2cc3c(s2)CCC(CO)C3)ccc2c(=O)c(C(=O)O)cn(C3CC3)c12 (stereo not drawn)")
"218 to 219 °C"
>>> assay_result("Cc1nc2cnccc2n1-c1ccc(Cn2nnc3ccccc32)cc1")
"126 to 127 °C"
>>> assay_result("CCC(=O)Cc1cc(OC2CCCC2)ccc1NC(=O)OC(C)(C)C")
"71 to 73 °C"
>>> assay_result("CCCCCCC(O)CCCCCCCCCCC(=O)NCC(O)CNCCO (stereo not drawn)")
"97.7 to 99.6 °C"
>>> assay_result("O=C(O)CSCCSc1cc(-c2ccccc2)c(O)c(-c2ccccc2)c1")
"125 °C"

---

Here the recorded melting point is given for each entry.
quantity-name: melting point

>>> assay_result("O=C(Oc1cc(Cl)ccc1Cl)c1cc2ccccc2oc1=O")
"189 to 192 °C"
>>> assay_result("Cn1c(C(F)(F)F)cc(=O)n(Cc2cc(I)cc(Cl)c2Cl)c1=O")
"142 to 144 °C"
>>> assay_result("O=c1c2ccc(OCCCN3CCN(Cc4ccc(Cl)cc4)CC3)cc2oc2nn[nH]c12")
"215 to 216 °C"
>>> assay_result("COc1ccc(-c2nn(Cc3ccc(OCc4nc(-c5ccccc5)oc4C)cc3)cc2CCC(=O)O)cc1")
"137 to 138 °C"

---

In this section we review reported melting point values for a set of compounds.
quantity-name: melting point

>>> assay_result("C[C@H](Cn1ncnn1)n1cnc2cc3c(=O)n(Cc4c[nH]nn4)nnc3cc2c1=O")
"180 to 182 °C"
>>> assay_result("CN(C(CCn1c(=O)[nH]c2ncccc2c1=O)C(=O)NO)S(=O)(=O)c1ccc(Oc2ccccc2)cc1 (configuration not stated)")
"125 to 126 °C"
>>> assay_result("NC(=O)c1ccc(OCC2CO2)c(I)c1 (configuration not stated)")
"149 to 151 °C"
>>> assay_result("CCS(=O)(=O)c1ccc(Oc2cc(Cl)c(Cl)cc2Cl)nc1")
"120 to 122 °C"
>>> assay_result("NC(=O)c1sccc1SSc1ccsc1C(N)=O")
"222 to 223 °C"
>>> assay_result("Cc1nc(-n2ccc(OCc3ccc(C(F)(F)F)o3)cc2=O)sc1C(=O)NCc1cccnc1")
"240 to 242 °C"
>>> assay_result("C[C@]1(CN2CCCc3ccccc32)Cn2cc([N+](=O)[O-])nc2O1")
"168 to 172 °C"
>>> assay_result("COc1cc2c(cc1OC)C(Cc1ccncc1)(Cc1ccncc1)CN=C2c1ccccc1")
"168 to 169 °C"
>>> assay_result("Cc1nccn1Cc1c(C(=O)O)nc2c(=O)[nH]c3cc(C(F)(F)F)ccc3n12")
"> 250 °C"
>>> assay_result("CCn1nc(-c2sc(C(=O)NCc3ccccn3)nc2-c2ccccc2)ccc1=O")
"169 to 170 °C"
>>> assay_result("CN1CC2(c3cccc(O)c3)CCCC1C2 (configuration not stated)")
"144 to 146 °C"
>>> assay_result("O[C@H](CCc1cccnc1)COc1ccc(-c2ccc(F)cc2)cc1")
"124 to 125 °C"
>>> assay_result("O=C1N[C@H](Cc2ccc(F)cc2)[C@H](c2ccc(C(F)(F)F)cc2)O1 (racemic)")
"160 to 161 °C"
>>> assay_result("CC(C)(C)C(=O)c1ccc(CN2C(=O)c3ccccc3C2=O)cc1")
"138 to 140 °C"
>>> assay_result("Cn1c(=O)c(-c2ccc(Cl)cc2Cl)cc2c3cc(-c4cc(N)n[nH]4)ccc3n(C)c21")
"284 to 286 °C"
>>> assay_result("CN(C)c1ccc(-c2cc3ncc(C#N)c(Cl)c3s2)cc1")
"270 to 272 °C"
>>> assay_result("COc1ccc(-c2nc(CN(C)C)nc3sc(C)c(C)c23)cc1OC")
"118 to 120 °C"
>>> assay_result("O=C(NC(SC(=O)c1ccccc1)C(=O)NC(Cc1c[nH]c2ccccc12)C(=O)O)c1ccccc1 (configuration not stated)")
"188 to 191 °C"
>>> assay_result("COc1ccc(C(=O)Nc2ccccc2)c2c1OCC2CC(=O)O (configuration not stated)")
"248 to 251 °C"
>>> assay_result("CCC(O)(CC)CCN1CCC(c2noc3cc(F)ccc23)CC1")
"50 to 53 °C"
>>> assay_result("COc1ccc(C(=O)c2ccc([N+](=O)[O-])c(CO)c2)cc1")
"116 °C"
>>> assay_result("COc1ccc(CC(C)(C)NC(=O)N(C)O)cc1OC")
"77 to 78 °C"
>>> assay_result("CC1(C)CCC(C)(C)c2cc(-c3cc4ccc(C(=O)O)cc4[nH]3)ccc21")
"215 °C"
>>> assay_result("CCCCCCCCOc1c(OC)cc(N)c2ncccc12")
"63 to 64 °C"
>>> assay_result("CCOC(=O)c1c(N)c(C)nn1C")
"55.5 to 56.5 °C"
>>> assay_result("O=C(c1cccc(C(F)(F)F)c1)c1cc2cccc(Br)c2s1")
"135 to 136 °C"
>>> assay_result("COC(=O)[C@H]1Cc2ccc(C)cc2C(=O)[C@H](C)S1 (relative stereo)")
"99 to 100 °C"
>>> assay_result("Cc1ccc2nc(-c3ccc(-c4ccccc4)cc3)c(O)c(C(=O)O)c2c1")
"236 to 238 °C"
>>> assay_result("COc1ccc(Cl)cc1-c1cc(Cl)cc2c1OC(CN)C2 (configuration not stated)")
"174 to 176 °C"
>>> assay_result("O=C(O)CCc1cn(Cc2ccc(OCc3csc(-c4ccccc4)n3)cc2)cc1-c1ccccc1")
"111 to 112 °C"
>>> assay_result("CCCc1c(OC(C(=O)OCC)c2ccc(OC)cc2)ccc(C(C)=O)c1O (configuration not stated)")
"87 to 89 °C"
>>> assay_result("CC(C(=O)Nc1cccc2c1C(=O)c1c(NC(=O)C(C)N(C)C)cccc1C2=O)N(C)C (configuration not stated)")
"116 to 117 °C"
